IC50 for assorted compounds
target: UniProtKB Q15562; experiment: in vitro autopalmitoylation of recombinant TEAD2 with alkyne palmitoyl-CoA, click/streptavidin blot
Sequence (Q15562 217-447): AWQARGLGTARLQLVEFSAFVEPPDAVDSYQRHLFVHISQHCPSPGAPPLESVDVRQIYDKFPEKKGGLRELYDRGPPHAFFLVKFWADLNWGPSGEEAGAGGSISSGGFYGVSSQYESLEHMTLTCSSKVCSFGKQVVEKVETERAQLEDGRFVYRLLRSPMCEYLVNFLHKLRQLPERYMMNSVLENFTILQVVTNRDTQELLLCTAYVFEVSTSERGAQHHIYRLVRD

INSERT INTO results (chemical_smiles, measure, observed) VALUES
  ('O=C(CSc1nncs1)Nc1ccc(C23CC4CC(CC(C4)C2)C3)cc1', 'IC50', '0.617 µM');

Okay, now this compound:
**Q:** // Input: `O=C(CSc1nnc[nH]1)Nc1ccc(C23CC4CC(CC(C4)C2)C3)cc1Br` . Output its IC50 only.
**A:** 0.106 µM

FYI, the data here is from paper PMC9643419.
